experiment: Toxicity liver stage against HepG2, at 10uM; assay type: cell-based; design: test concentration 10 uM, cell line HepG2-A16-CD81EGFP; conditions: human, HepG2-A16-CD81EGFP cells; read-out: INHIBITION
Measured parameter: cytotoxicity at 10 µM (%)
One number for each entry, in %.

Example cases with answers are listed next.
# Molecule, Reading unit, cytotoxicity at 10 µM
measured = [
    ("COCC1CN(C(=O)COc2ccc(C)cc2)Cc2cn(C)nc21 (configuration not stated)", "%", 2.49),
    ("CCCc1n[nH]c(C2CN(CCC(F)(F)F)CCO2)n1 (configuration not stated)", "%", -13.9),
    ("Cc1nccn1-c1cncc(C2CCCN2Cc2ccccc2)n1 (configuration not stated)", "%", -8.52),
    ("COCCOCC(C)NC(=O)COc1nn(C)c2nc(C)cc(C)c12 (configuration not stated)", "%", -3.85),
    ("CC(C)(C)OC(=O)CNC(=O)CCc1nnc(-c2ccsc2)o1", "%", -10.2),
]

Report cytotoxicity at 10 µM for each item below.
1. CCC(Nc1nc(C2CCCC2)nc2c1cnn2C)c1ccncc1 (configuration not stated)
2. Fc1ccc(OCCNC2CCN(Cc3ccccn3)CC2)c(F)c1

Output line:
1. -39.6
2. -3.26

Report cytotoxicity at 10 µM for each item below.
1. CCCn1nccc1C(=O)N1CCCC(C(=O)CCc2ccccc2)C1 (configuration not stated)
2. COc1ccc2c(=O)n(CC3CCCCN3C)ccc2c1OC (configuration not stated)
3. Cc1ccc(C(C)NC(=O)Nc2ccccc2CN2CCOCC2)o1 (configuration not stated)

Output line:
1: -1.08; 2: 3.19; 3: 3.25

Report cytotoxicity at 10 µM for each item below.
1. N#Cc1ccc(SCCC(=O)NC(N)=O)cc1
2. CNC(=O)C1CCCCN1C(=O)c1sc(-c2ccc(C)o2)nc1C (configuration not stated)

Output line:
[-2.66, 4.45]

###

assay: Toxicity liver stage against HepG2, at 10uM; type: cell-based; set-up: test concentration 10 uM, cell line HepG2-A16-CD81EGFP; conditions: human, HepG2-A16-CD81EGFP cells; read-out: INHIBITION
Measured parameter: cytotoxicity at 10 µM (%)
One number for each entry, in %.

Example cases with answers are listed next.
# Compound, cytotoxicity at 10 µM, %
rows = [
    ("CC(C)C(NC(=O)c1ccccc1)C(=O)N1CCC2(CC1)OCCO2 (centres undefined)", 5.44),
    ("Cn1ccnc1CN1CC2(CCN(Cc3ccncc3)C2)C1", -5.76),
    ("CS(=O)(=O)N1CCCCCC1C1CCN(c2ncccn2)CC1 (centres undefined)", -7.98),
    ("CN(Cc1ccc2c(c1)OCO2)C(=O)C1CC(c2cccc(F)c2)=NO1 (centres undefined)", 10.7),
    ("CC(C)Cn1cc2nc(N3CCCC3)[nH]cc-2c1=O", 9.6),
]

Report cytotoxicity at 10 µM for each item below.
1. Cc1cc(CN2CCCC2)cc(Oc2ccc3c(c2)CC(CN)O3)c1 (centres undefined)
2. CCOc1ccc(NC(C)=O)cc1S(=O)(=O)Nc1cc(C)on1
3. CN(C)CCCN1CC2(CCN(C(=O)C3(C)CCCCO3)CC2)OC1=O (centres undefined)

Output line:
1: 0.298; 2: -4.13; 3: -8.76

Data origin: ChEMBL document CHEMBL4513216
